# System: MEIS1 mRNA expression
# ASSAY TEXT: MEIS1 mRNA expression assay (Quantigene Singleplex) in MOLM14
# Type: cell-based
# EXPERIMENTAL CONDITIONS: Homo sapiens, MOLM-14, 48 h, MOLM14 cells, 48 hours with compound
Friendly reminder: IC50 below 200 nM is fulfilled, at or above is not fulfilled.

>>> classification("CC(=O)N1CCC(N2CC[C@H](Cc3cn(-c4ccc(F)cc4C(=O)N(C)C(C)C)c4cncc(C)c34)C2)CC1")
"fulfilled"
>>> classification("CC(=O)N1C[C@H]2CC(N3CC(Cc4cn(-c5ccc(F)cc5C(=O)N(C)C(C)C)c5cncc(C)c45)C3)C[C@H]2C1 (single isomer, unassigned) [Compound 294a]")
"not fulfilled"
>>> classification("CC(=O)N1CC2CC(N3CC(Cc4cn(-c5ccc(F)cc5C(=O)N(C)C(C)C)c5cncc(C)c45)C3)CC2C1 (stereo not shown) [Compound 294b]")
"fulfilled"
>>> classification("COCC(=O)N1CCC(C(C)N2CCC(Cc3cn(-c4ccc(F)cc4C(=O)N(C)C(C)C)c4cncc(C)c34)C2)CC1 (single isomer, unassigned) [Compound 117a]")
"fulfilled"
>>> classification("Cc1cncc2c1c(CC1CN(CC3CCNC(=O)C3)C1)cn2-c1ccc(F)cc1C(=O)N(C)C(C)C (stereo not shown)")
"not fulfilled"
>>> classification("CNC(=O)N1CCC(CN2CC[C@H](Cc3cn(-c4ccc(F)cc4C(=O)N(C)C(C)C)c4cncc(C)c34)C2)CC1 (single isomer, unassigned)")
"fulfilled"
>>> classification("CC(=O)N1CCC(CN2CCC(Cc3cn(-c4ccc(F)cc4C(=O)N(C)C(C)C)c4cncc(C)c34)C2)CC1 (single isomer, unassigned)")
"fulfilled"

Source listed as patent US20260191835A1.
